# maps each entry to its MOR agonist activity, [35S]GTPγS binding to Gαo, 1 μM + BFNA
molecular target: mu opiate receptor (MOR) (Rattus norvegicus, UniProt P33535); construct: from tissue; host or cells: striatal tissue (membrane preparation); test: [35S]GTPγS binding assay using striatal membranes (MOR agonist activity); assay type: biochemical; design: reference not given here; details: 1 μM compound + 1 μM β-funaltrexamine
Sequence (P33535 whole entry): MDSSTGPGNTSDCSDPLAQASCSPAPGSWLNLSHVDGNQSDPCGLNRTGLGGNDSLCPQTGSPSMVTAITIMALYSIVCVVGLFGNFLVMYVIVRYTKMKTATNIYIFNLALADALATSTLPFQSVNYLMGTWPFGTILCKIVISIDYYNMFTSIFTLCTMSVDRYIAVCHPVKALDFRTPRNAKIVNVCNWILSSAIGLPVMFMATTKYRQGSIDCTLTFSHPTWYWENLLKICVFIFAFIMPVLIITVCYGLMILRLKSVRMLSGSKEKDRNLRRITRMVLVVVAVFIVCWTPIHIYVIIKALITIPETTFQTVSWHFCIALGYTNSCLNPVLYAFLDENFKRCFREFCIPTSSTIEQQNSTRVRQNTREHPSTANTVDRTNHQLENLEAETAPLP
ASSAY_ENDPOINT: MOR agonist activity, [35S]GTPγS binding to Gαo, 1 μM + BFNA (%)

molecule="CCOc1ccc(C(=O)CC2c3c(cc4c(c3OC)OCO4)CC[N+]2(C)C)cc1F (centres unmarked)" test_target="mu opiate receptor (MOR) (Rattus norvegicus, UniProt P33535)" observed_result=24.9
molecule="COc1c2c(cc3c1C(CC(=O)CCc1ccc(O)cc1)[N+](C)(C)CC3)OCO2.[I-] (centres unmarked)" test_target="mu opiate receptor (MOR) (Rattus norvegicus, UniProt P33535)" observed_result=55.0
molecule="COc1ccc(C(=O)CC2c3c(cc4c(c3OC)OCO4)CC[N+]2(C)C)cc1OC.[I-] (centres unmarked)" test_target="mu opiate receptor (MOR) (Rattus norvegicus, UniProt P33535)" observed_result=28.8
molecule="COc1c2c(cc3c1C(CC(=O)CCc1ccc(F)cc1)[N+](C)(C)CC3)OCO2 (centres unmarked)" test_target="mu opiate receptor (MOR) (Rattus norvegicus, UniProt P33535)" observed_result=45.6
molecule="COc1ccc(CCC(=O)CC2c3c(cc4c(c3OC)OCO4)CC[N+]2(C)C)cc1 (centres unmarked)" test_target="mu opiate receptor (MOR) (Rattus norvegicus, UniProt P33535)" observed_result=72.2
molecule="COc1ccccc1C(=O)CC1c2c(cc3c(c2OC)OCO3)CC[N+]1(C)C (centres unmarked)" test_target="mu opiate receptor (MOR) (Rattus norvegicus, UniProt P33535)" observed_result=137.7
molecule="COc1c2c(cc3c1C(CC(=O)c1cccc(C(F)(F)F)c1)[N+](C)(C)CC3)OCO2 (centres unmarked)" test_target="mu opiate receptor (MOR) (Rattus norvegicus, UniProt P33535)" observed_result=18.6
molecule="COCOc1ccc(C(=O)CC2c3c(cc4c(c3OC)OCO4)CC[N+]2(C)C)cc1C.[I-] (centres unmarked)" test_target="mu opiate receptor (MOR) (Rattus norvegicus, UniProt P33535)" observed_result=41.9
